composite z-score reference
Assay System: Albumin (Bos taurus) (UniProt P02769)
Sequence (P02769 whole entry, looked up): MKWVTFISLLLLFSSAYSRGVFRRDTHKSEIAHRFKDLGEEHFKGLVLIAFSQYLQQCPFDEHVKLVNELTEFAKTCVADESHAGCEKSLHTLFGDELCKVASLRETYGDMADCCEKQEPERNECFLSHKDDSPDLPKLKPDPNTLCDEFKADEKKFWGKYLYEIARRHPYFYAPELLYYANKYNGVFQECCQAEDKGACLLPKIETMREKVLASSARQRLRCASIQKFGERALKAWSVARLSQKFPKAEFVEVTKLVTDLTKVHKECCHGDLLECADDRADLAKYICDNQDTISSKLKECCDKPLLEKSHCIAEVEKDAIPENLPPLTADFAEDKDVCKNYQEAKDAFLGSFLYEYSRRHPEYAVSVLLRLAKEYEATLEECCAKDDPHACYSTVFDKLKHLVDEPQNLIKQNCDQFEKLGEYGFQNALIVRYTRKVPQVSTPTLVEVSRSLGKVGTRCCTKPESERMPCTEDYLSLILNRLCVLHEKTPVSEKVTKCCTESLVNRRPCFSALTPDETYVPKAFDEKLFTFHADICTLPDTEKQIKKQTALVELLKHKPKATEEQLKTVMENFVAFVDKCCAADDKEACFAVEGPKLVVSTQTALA
Assay Overview: bovine serum albumin binders on microarray, profiling panel, artefact control for SMM control protein annotation, biochemical, small-molecule microarray, Alexa647 label, 635/667 nm fluorescence (AID 1118);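 further: score merges 667 nm emission intensity and signal-to-noise per printed compound spot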
Applied Conditions: BSA-A647 binding, fluorescence 635 nm, higher = more signal
Output: the number by itself.

Note to self: composite z-score recorded for COc1cc2c(cc1OC)CN(C(=O)[C@H]1[C@@H]3C(=O)O[C@@H](c4ccccc4)[C@@H](c4ccccc4)N3[C@@H](c3ccccc3OCCO)[C@]13C(=O)Nc1ccc(C#CC4(O)CCCCCC4)cc13)CC2 was 0.168

Note to self: composite z-score recorded for CC[C@H]1C2=C3C(CC[C@H]4C(OC)OC[C@](C)([C@@H]34)N(C(=O)OC(C)(C)C)C2)C(CO)C1CO (stereo partly drawn) was 1.05

Note to self: composite z-score recorded for CN(C)c1ccc(C(O)C2C=CC3C(=O)NC(=O)C3N2Nc2ccc(Cl)cc2Cl)cc1 (stereo not drawn) was 0.667

---

Assay Overview: E. coli DRC41 culture turbidity changes, primary screen, E. coli filamentation inducer project, strain DRC41, OD650, 48 h (AID 1152);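 further: E. coli MC1000 strain DRC41 lacking acrAB efflux pump and sulA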
Applied Conditions: E. coli DRC41 (acrAB sulA), higher = more signal, called active from +8 up or from −8 down
Class (required): determined from z-score; valid ranges are range 1 = under -0.2, range 2 = from -0.2 up to 0.6, range 3 = 0.6 and over

Use these answered entries as a reference point.
CC1=C([C@H](O)CCc2ccccc2)[C@H](CO)[C@@H]2C(=O)N(Cc3ccccc3)C(=O)[C@@H]2C1 :: range 3
COc1cccc([C@@H]2[C@@H](C)CC[C@H]3C(=O)N4[C@H](c5cccc(OC)c5)[C@@H](C)CC[C@H]4C(=O)N23)c1 :: range 2
COC(=O)C1=C(C)N(Cc2ccccc2)c2c(C(=O)OC)c(C(=O)OC)c(C(=O)OC)c(=O)n2[C@@H]1c1ccccc1 :: range 2
O=C1C2C=CC(C(O)C(c3ccccc3)c3ccccc3)N(Nc3ccc([N+](=O)[O-])cc3)C2C(=O)N1c1ccccc1 (stereo not drawn) :: range 1
CO[C@H]1COC(=O)[C@H](C)NC(=O)CC=C[C@@H](C)[C@H](NS(=O)(=O)c2ccc(C)cc2)COC(=O)[C@@H](OCc2ccccc2)C=C[C@@H]1C :: range 2

Ask | Kindly identify the class of CN1C(=O)C2C=CC(C(O)C3CC=CCC3)N(Nc3ccccc3)C2C1=O (stereo not drawn) .
Reply | range 1

Ask | Kindly identify the class of [N-]=[N+]=NCc1ccccc1C[C@@]1(C(=O)N2CCOCC2)N=C(c2ccc(OCCCO)cc2)O[C@@H]1c1ccccc1N=[N+]=[N-] .
Reply | range 3

---

Assay Overview: small-molecule binders of probe aNOTCH3, primary screen, biochemical, small-molecule microarray, 635/667 nm fluorescence (AID 1120);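 further: probe is a biotin-tagged antibody raised against NOTCH3 rather than NOTCH3 protein; score merges spot fluorescence near 667 nm with spot signal to noise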
Applied Conditions: higher = more signal
composite z-score reference

COc1ccc(NN2C(C(O)c3cc(OC)c(OC)c(OC)c3)C=CC3C(=O)N(C4CCCCC4)C(=O)C32)cc1 (centres undefined) :: 0.831

Note to self: composite z-score recorded for CC(C)(C)OC(=O)CC[C@]1(C(=O)N2CCCCC2)N=C(c2ccc(OCCCO)cc2)O[C@H]1c1ccccc1 was 0.261

Note to self: composite z-score recorded for CO[C@H]1COC(=O)[C@H](CCSC)NC(=O)CC=C[C@@H](C)COC(=O)[C@@H](OCc2ccccc2)C=C[C@@H]1C was -0.0914

Note to self: composite z-score recorded for COc1ccc([Si](C)(C)[C@@H]2[C@@H](CCO)O[C@]3(C(=O)N(Cc4ccc(NC(=O)[C@H](C)O)cc4)c4ccccc43)[C@H]2C)cc1 was -0.0288

---

Assay Overview: CREB reporter modulators under forskolin, primary screen, cell-based, PC12, CRE-LacZ reporter, forskolin-stimulated (AID 1146);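 further: PC12 cells with 6xCRE LacZ reporter stimulated by forskolin 10 µM; beta-galactosidase reporter signal reflecting CREB driven transcription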
Applied Conditions: luminescence, 4.5 h, higher = more signal, called active from +8 up or from −8 down
z-score reference
Output: the number by itself.

Here are 2 compounds together with their reported answers.
C=CCC(OC(C)=O)[C@@H]1[C@@H](N(Cc2cccc3ccccc23)C(=O)Cc2ccc(F)cc2)c2cc(OCCCO)ccc2N1C(=O)Cc1ccc2ccccc2c1 (stereo partly drawn) :: 1.17
C=C(/C(=C/C[C@@H](OC(=O)c1ccncc1)c1ccc(CO)o1)c1cnc2ccccc2c1)C(C)C :: -0.42

# context switch: different compound, same z-score
Note to self: z-score recorded for COCCOC(=O)N1C(=O)[C@@]2(c3ccccc31)[C@H](C(=O)N1CCc3cc(OC)c(OC)cc3C1)[C@H]1C(=O)O[C@H](c3ccccc3)[C@H](c3ccccc3)N1[C@@H]2c1ccccc1OCCO was -1.12

---

composite z-score reference
Assay System: Torsin-1A (Homo sapiens) (UniProt O14656)
Sequence (O14656 whole entry, looked up): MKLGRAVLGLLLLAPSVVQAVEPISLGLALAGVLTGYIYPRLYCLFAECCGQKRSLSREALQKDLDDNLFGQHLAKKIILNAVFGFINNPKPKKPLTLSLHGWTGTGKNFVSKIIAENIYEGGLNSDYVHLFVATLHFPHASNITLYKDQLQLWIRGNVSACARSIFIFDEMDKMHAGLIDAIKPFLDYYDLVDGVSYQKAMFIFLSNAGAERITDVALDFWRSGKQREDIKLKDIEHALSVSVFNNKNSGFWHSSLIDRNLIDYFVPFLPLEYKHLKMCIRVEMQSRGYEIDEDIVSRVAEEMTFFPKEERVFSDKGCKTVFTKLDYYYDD
Assay Overview: small-molecule binders of mutant TOR1A in lysate, primary screen, cell lysate, small-molecule microarray, COS7 lysate, 635/667 nm fluorescence (AID 1150);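 further: score pools 667 nm emission and signal to noise measuring lysate protein binding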
Applied Conditions: COS7 hTOR1A mutant lysate, 635 nm fluorescence, higher = more signal
Output: the number by itself.

Here are 2 compounds together with their reported answers.
CCOC(=O)C1=CCC(c2cccc3ccccc23)N(S(=O)(=O)c2ccc(C)cc2)C1 (configuration not stated) :: 0.216
O=C1C2C=CC(C(O)C(c3ccccc3)c3ccccc3)N(Nc3ccc([N+](=O)[O-])cc3)C2C(=O)N1c1ccccc1 (configuration not stated) :: 0.871

Record C=CCC(OC(C)=O)[C@@H]1[C@@H](N(Cc2cc3ccccc3o2)C(=O)c2ccc(C)cc2)c2cc(OCCCO)ccc2N1C(=O)c1ccc2ccccc2n1 (some centres not stated) / Torsin-1A (Homo sapiens) (UniProt O14656), composite z-score recorded as -0.368

Record C[C@@H]1NC(=O)[C@H](Cc2ccccc2)NC(=O)[C@@]23C(=O)N[C@@H](Cc4ccccc4)C2[C@H](C)[C@@]2(C)O[C@H]2C3/C=C/C/C=C\CNC1=O (some centres not stated) / Torsin-1A (Homo sapiens) (UniProt O14656), composite z-score recorded as -0.0686

---

composite z-score reference
Assay Overview: small-molecule microarray binders of probe aLefty2, primary screen, biochemical, biotinylated probe, 635/667 nm fluorescence (AID 1094);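 further: score merges spot fluorescence near 667 nm with spot signal-to-noise ratio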
Applied Conditions: higher = more signal
Output: the number by itself.

Here are 3 molecules together with their reported answers.
CO[C@H]1COC(=O)[C@@H](C)NC(=O)CC=C[C@@H](C)[C@H](OC)COC(=O)CC=C[C@@H]1C :: -0.28
CCOC(=O)C[C@H]1[C@H](OC(=O)c2ccccc2-c2ccccc2)[C@@H](NC(=O)C2CCCCC2)c2cc(OCCCO)ccc2N1C(=O)c1ccccc1 :: -0.0498
C=CCNC(=O)[C@H]1[C@@H]2C(=O)O[C@@H](c3ccccc3)[C@@H](c3ccccc3)N2[C@@H](c2ccccc2OCCO)[C@]12C(=O)N(C(=O)OCCOC)c1ccc(C#CCNC(N)=O)cc12 :: -0.108

Note to self: composite z-score recorded for CC1CC/C=C\[C@H]2OC34C=CCN(Cn5nnc6ccccc65)C(=O)[C@H]3N(C(C)CO)C(=O)[C@@H]4C2C(=O)O1 (stereo partly drawn) was -0.144

Note to self: composite z-score recorded for COCCOC(=O)N1C(=O)[C@@]2(c3cc(C#CCNC(N)=O)ccc31)[C@H](c1ccc(OCCO)cc1)N1[C@H](c3ccccc3)[C@H](c3ccccc3)OC(=O)[C@H]1[C@@H]2C(=O)N1CCCCCCC1 was 1.09

Note to self: composite z-score recorded for CCCCO[C@H]1C[C@H]2C(Br)=C[C@@]1(CO)C(=O)[C@]21CO1 was -0.341

Note to self: composite z-score recorded for CCN1C(C)=C(C(=O)OC)[C@@H](c2ccccc2)N2C(=O)[C@](O)(C(=O)OC)[C@@H](c3ccccc3)C(C(C)=O)=C12 was 0.0417

Note to self: composite z-score recorded for O=C1OCCC/C=C\[C@H]2OC34C=CCN(CCN5CCOCC5)C(=O)[C@H]3N(CCCCCO)C(=O)[C@@H]4C12 (stereo partly drawn) was -0.221

---

Assay Overview: inhibitors of hydroxyurea-induced Chk1 phosphorylation, primary screen, imaging, HeLa, phospho-Chk1 antibody, percent positive cells (AID 1186)
Applied Conditions: hydroxyurea-induced phospho-Chk1 immunofluorescence imaging, higher = more signal
z-score reference
Output: the number by itself.

Here are 3 molecules together with their reported answers.
C[C@]1(C(=O)NCc2ccccc2)c2ccccc2C(=O)N(Cc2cc(C(F)(F)F)cc(C(F)(F)F)c2)[C@H]1c1ccc(CO)cc1 :: -1.45
C=CC[C@]1(C(=O)N2CCCCC2)N=C(c2ccc(OCCCO)cc2)O[C@H]1c1ccccc1N=[N+]=[N-] :: -0.135
COc1ccc([Si](C)(C)[C@@H]2[C@@H](CCO)O[C@]3(C(=O)N(Cc4ccccc4)c4ccccc43)[C@H]2C)cc1 :: -0.0106

Note to self: z-score recorded for O=C1c2ccccc2[C@@]2(Cc3ccccc3N(CC(F)(F)F)C2=O)[C@H](c2ccc(CO)cc2)N1C1CCCCC1 was -0.202

Note to self: z-score recorded for C#CCNC(/C=C/c1ccccc1)CO (stereo not given) was 0.0357

Note to self: z-score recorded for O=C1C2C=CC(C(O)c3ccccc3)N(n3cnnc3)C2C(=O)N1Cc1ccccc1 (stereo not given) was -1.25

Note to self: z-score recorded for C=CC[C@]1(C(N)=O)N=C(c2ccc(OCCCO)cc2)O[C@H]1c1ccccc1CN=[N+]=[N-] was -0.273

Note to self: z-score recorded for CC(C)(C)OC(=O)CC[C@@]1(C(=O)NCc2ccccc2)N=C(c2ccc(OCCCO)cc2)O[C@@H]1c1ccccc1 was -1.17

Note to self: z-score recorded for C[C@]1(C(=O)NCCN2CCOCC2)c2ccccc2C(=O)N(Cc2ccccc2)[C@H]1c1ccc(CO)cc1 was 0.0553

Note to self: z-score recorded for O=C1C2C=CC(C(O)C(c3ccccc3)c3ccccc3)N(Nc3ccc([N+](=O)[O-])cc3)C2C(=O)N1c1ccccc1 (stereo not given) was 0.349

Note to self: z-score recorded for O=[N+]([O-])c1ccc(C[n+]2ccc3ccc(O)cc3c2)o1 was -0.0465
